Tested on: Escherichia coli TOP10;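 note: peptides expressed intracellularly from a pBAD plasmid library in pooled LB shake-flask culture, induced with 0.3% L-arabinose, DNA abundance read by NGS, three biological replicates, DESeq2 with apeglm shrinkage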
Method Summary: shrunken log2 fold change of peptide-encoding DNA abundance (4.5 h post-induction vs induction); higher = less antimicrobial activity (less host growth inhibition)
Condition Info: time post-induction: 4.5 h; library: site-saturation at positions 5, 18, 19, 20
Hi there, I'd appreciate the recorded shrunken log2 fold change for every entry that follows.
Respond with the number and no other words.

Query: Provide shrunken log2 fold change value for the following sequence: `RRIRTRPPRLPRPRPRPARWPRP`
Result: 0.471

Query: Annotate the sequence `RRIRNRPPRLPRPRPRPSHVPRP` with its measured shrunken log2 fold change.
Result: -0.0765

Query: Return shrunken log2 fold change for the following sequence: `RRIRPRPPRLPRPRPRPLNVPRP`
Result: -0.448

Query: Indicate the recorded shrunken log2 fold change value for this sequence: `RRIRIRPPRLPRPRPRPKDTPRP`
Result: -0.224

Query: Quickly give me recorded shrunken log2 fold change for `RRIRFRPPRLPRPRPRPLLDPRP`
Result: -0.0563

Query: Kindly indicate its recorded shrunken log2 fold change. Item: `RRIRLRPPRLPRPRPRPPVNPRP`
Result: 0.168

Query: For the sequence `RRIRNRPPRLPRPRPRPDQTPRP` , give its measured shrunken log2 fold change value.
Result: -0.0645

Query: Report shrunken log2 fold change for `RRIRHRPPRLPRPRPRPSPKPRP`
Result: -0.0976

Query: Provide shrunken log2 fold change value for the following sequence: `RRIRERPPRLPRPRPRPMVPPRP`
Result: -0.103

Query: Return reported shrunken log2 fold change. Input sequence: `RRIRCRPPRLPRPRPRPDACPRP`
Result: 0.175

Query: Kindly indicate its recorded shrunken log2 fold change. Item: `RRIRERPPRLPRPRPRPWKKPRP`
Result: -0.0959

Query: # return recorded shrunken log2 fold change for entry `RRIRNRPPRLPRPRPRPPRTPRP`
Result: 0.59

Query: Quote shrunken log2 fold change reported for `RRIRWRPPRLPRPRPRPWDDPRP` please.
Result: -0.236

Query: // fetch shrunken log2 fold change given entry `RRIRMRPPRLPRPRPRPPLVPRP`
Result: 0.36

Query: Give the measured shrunken log2 fold change for `RRIRWRPPRLPRPRPRPQKWPRP`
Result: 0.00891

Query: Tell me measured shrunken log2 fold change for `RRIRWRPPRLPRPRPRPSLPPRP` please.
Result: -0.133

Query: Input `RRIRARPPRLPRPRPRPKPRPRP` , output reported shrunken log2 fold change.
Result: 1.9

Query: Supply measured shrunken log2 fold change of `RRIRDRPPRLPRPRPRPKRMPRP` in your reply.
Result: 0.0969

Query: Determine its reported shrunken log2 fold change: `RRIRRRPPRLPRPRPRPNGRPRP`
Result: -0.0152

Query: State its shrunken log2 fold change for this sequence: `RRIRVRPPRLPRPRPRPICQPRP`
Result: -0.188

Query: Answer with the recorded shrunken log2 fold change of `RRIRMRPPRLPRPRPRPEQDPRP` only.
Result: 0.0255

Query: Provide only the value of recorded shrunken log2 fold change for `RRIRTRPPRLPRPRPRPGPMPRP`
Result: 0.101

Query: Input `RRIRSRPPRLPRPRPRPPWPPRP` , output reported shrunken log2 fold change.
Result: 0.51

Query: For `RRIRERPPRLPRPRPRPSMYPRP` , write its shrunken log2 fold change.
Result: -0.516

Query: Report measured shrunken log2 fold change; entry is `RRIRFRPPRLPRPRPRPIDAPRP`
Result: -0.289

Query: Fill in shrunken log2 fold change for record `RRIRPRPPRLPRPRPRPNWMPRP`
Result: 0.0917

Query: Please give measured shrunken log2 fold change of the following entry: `RRIRTRPPRLPRPRPRPEHYPRP`
Result: -0.0177

Query: Read off the recorded shrunken log2 fold change for `RRIRKRPPRLPRPRPRPFESPRP`
Result: 0.0457

Query: Give shrunken log2 fold change for the following sequence: `RRIRTRPPRLPRPRPRPTVTPRP`
Result: 0.0797

Query: Assign shrunken log2 fold change to the following record: `RRIRWRPPRLPRPRPRPLKRPRP`
Result: 0.612

Query: Tell me shrunken log2 fold change reported for `RRIRTRPPRLPRPRPRPFADPRP`
Result: -0.112

Query: Quick one: give measured shrunken log2 fold change for `RRIRMRPPRLPRPRPRPETMPRP`
Result: 3.17

Query: Give a short answer stating reported shrunken log2 fold change for `RRIRGRPPRLPRPRPRPWDAPRP` .
Result: 0.142

Query: State its shrunken log2 fold change for this sequence: `RRIRDRPPRLPRPRPRPAVNPRP`
Result: 0.092

Query: Item `RRIRVRPPRLPRPRPRPGYMPRP` : provide shrunken log2 fold change
Result: -0.37

Query: State, in one line, measured shrunken log2 fold change of `RRIRERPPRLPRPRPRPKYRPRP`
Result: -0.00726

Query: Could you please provide reported shrunken log2 fold change for `RRIRTRPPRLPRPRPRPNHAPRP` ? Thanks!
Result: 0.176

Query: Look up shrunken log2 fold change of `RRIRYRPPRLPRPRPRPYKAPRP` and report it.
Result: 0.019

Query: In one line, give reported shrunken log2 fold change of the entry `RRIRNRPPRLPRPRPRPKIQPRP` .
Result: -0.367

Query: Given `RRIRWRPPRLPRPRPRPQGQPRP` , respond with its shrunken log2 fold change.
Result: 0.203

Query: Item `RRIRDRPPRLPRPRPRPVKNPRP` : provide shrunken log2 fold change
Result: -0.0293

Query: Please indicate shrunken log2 fold change recorded for `RRIRLRPPRLPRPRPRPCRCPRP`
Result: 0.00318

Query: Return the recorded shrunken log2 fold change value; entry: `RRIRNRPPRLPRPRPRPDAQPRP`
Result: -0.173

Query: State its shrunken log2 fold change: `RRIRMRPPRLPRPRPRPPPEPRP`
Result: 1.82

Query: Dear colleague, please send me the reported shrunken log2 fold change for `RRIRSRPPRLPRPRPRPMRTPRP` when you can.
Result: 0.654
